molecular target: BaF3 cell lines stably transfected with kinase EGFR L858R/T790M (Homo sapiens, UniProt P00533, T790M/L858R, cells depend on it); assay: Growth inhibition of BaF3 cell line stably transfected with kinase EGFR L858R/T790M (MTS); assay type: cell-based; conditions: 48 h, read-out: growth inhibitory activity IC50, L858R/T790M
Sequence (P00533 whole entry T790M/L858R): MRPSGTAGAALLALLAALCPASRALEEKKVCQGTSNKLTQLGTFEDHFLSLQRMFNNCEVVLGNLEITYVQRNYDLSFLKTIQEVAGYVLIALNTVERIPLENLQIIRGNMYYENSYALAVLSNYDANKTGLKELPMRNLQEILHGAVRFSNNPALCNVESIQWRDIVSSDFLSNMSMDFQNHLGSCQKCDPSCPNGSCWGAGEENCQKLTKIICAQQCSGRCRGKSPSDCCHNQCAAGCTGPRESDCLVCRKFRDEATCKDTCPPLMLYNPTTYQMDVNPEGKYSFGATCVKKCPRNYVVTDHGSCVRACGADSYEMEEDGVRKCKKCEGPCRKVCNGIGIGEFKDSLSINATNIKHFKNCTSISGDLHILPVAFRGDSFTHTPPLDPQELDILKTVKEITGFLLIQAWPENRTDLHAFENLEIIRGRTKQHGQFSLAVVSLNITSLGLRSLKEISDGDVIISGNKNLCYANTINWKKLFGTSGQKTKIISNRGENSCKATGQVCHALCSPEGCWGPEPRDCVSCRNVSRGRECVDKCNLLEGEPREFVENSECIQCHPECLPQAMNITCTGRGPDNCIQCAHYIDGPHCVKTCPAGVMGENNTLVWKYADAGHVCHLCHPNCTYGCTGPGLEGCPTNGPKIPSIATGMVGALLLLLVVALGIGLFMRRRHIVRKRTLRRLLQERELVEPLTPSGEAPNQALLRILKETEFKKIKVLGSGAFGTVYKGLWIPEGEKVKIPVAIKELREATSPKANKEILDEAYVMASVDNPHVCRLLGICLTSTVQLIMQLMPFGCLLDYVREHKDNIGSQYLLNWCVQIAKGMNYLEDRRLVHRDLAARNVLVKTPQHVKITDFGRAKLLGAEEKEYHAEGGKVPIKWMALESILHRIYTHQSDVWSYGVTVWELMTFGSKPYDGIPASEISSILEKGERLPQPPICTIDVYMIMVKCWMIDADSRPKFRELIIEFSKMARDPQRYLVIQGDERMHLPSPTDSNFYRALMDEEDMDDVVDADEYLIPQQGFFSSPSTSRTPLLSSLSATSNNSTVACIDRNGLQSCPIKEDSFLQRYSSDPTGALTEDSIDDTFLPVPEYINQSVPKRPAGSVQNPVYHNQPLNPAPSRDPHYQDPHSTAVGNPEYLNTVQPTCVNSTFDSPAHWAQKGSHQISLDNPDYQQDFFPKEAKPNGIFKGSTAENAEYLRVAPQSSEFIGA
parameter: GI50

Here's what some known entries look like.
C=Cc1cnc(Nc2cc(CC)c(N3CCC(N(C)C)C3)cc2OC)nc1Nc1ccc2nccnc2c1S(C)(=O)=O (stereo not shown); 50 to 500 nM
C=Cc1cnc(Nc2cc(CC)c(N3CCC(N4CCN(C)CC4)CC3)cc2OC)nc1Nc1ccc2nccnc2c1N(C)S(=O)(=O)CC; 50 to 500 nM
C=Cc1cnc(Nc2ccc(N3CCC(N4CCN(C)CC4)CC3)c(CC)c2)nc1Nc1ccc2nccnc2c1N(C)S(C)(=O)=O; ≤ 50 nM
C=Cc1cnc(Nc2cc(CC)c(N3CCC(N4CCN(C)CC4)CC3)cc2OC)nc1Nc1ccc2nccnc2c1N(C)S(=O)(=O)C(F)(F)F; 50 to 500 nM
C=Cc1cnc(Nc2cc(F)c(N3CCC(N4CCN(C)CC4)CC3)c(F)c2)nc1Nc1ccc2nccnc2c1S(=O)(=O)NC; ≤ 50 nM

Measured GI50 of C=Cc1cnc(Nc2cc(CC)c(N3CCC(N4CCN(C)CC4)CC3)cc2OC)nc1Nc1ccc2nccnc2c1N(C)S(C)(=O)=O [II-1] : ≤ 50 nM

Entry under test: "C=Cc1cnc(Nc2cc(CC)c(N3CCC(N(C)C)CC3)cc2OC)nc1Nc1ccc2nccnc2c1N(C)S(C)(=O)=O" . Its GI50 was ≤ 50 nM

====

Below: a set of entries, each annotated with reported GI50.
Molecular target: BaF3 cell lines stably transfected with kinase EGFR L858R (Homo sapiens, UniProt P00533, L858R, cells depend on it)
Sequence (P00533 whole entry L858R): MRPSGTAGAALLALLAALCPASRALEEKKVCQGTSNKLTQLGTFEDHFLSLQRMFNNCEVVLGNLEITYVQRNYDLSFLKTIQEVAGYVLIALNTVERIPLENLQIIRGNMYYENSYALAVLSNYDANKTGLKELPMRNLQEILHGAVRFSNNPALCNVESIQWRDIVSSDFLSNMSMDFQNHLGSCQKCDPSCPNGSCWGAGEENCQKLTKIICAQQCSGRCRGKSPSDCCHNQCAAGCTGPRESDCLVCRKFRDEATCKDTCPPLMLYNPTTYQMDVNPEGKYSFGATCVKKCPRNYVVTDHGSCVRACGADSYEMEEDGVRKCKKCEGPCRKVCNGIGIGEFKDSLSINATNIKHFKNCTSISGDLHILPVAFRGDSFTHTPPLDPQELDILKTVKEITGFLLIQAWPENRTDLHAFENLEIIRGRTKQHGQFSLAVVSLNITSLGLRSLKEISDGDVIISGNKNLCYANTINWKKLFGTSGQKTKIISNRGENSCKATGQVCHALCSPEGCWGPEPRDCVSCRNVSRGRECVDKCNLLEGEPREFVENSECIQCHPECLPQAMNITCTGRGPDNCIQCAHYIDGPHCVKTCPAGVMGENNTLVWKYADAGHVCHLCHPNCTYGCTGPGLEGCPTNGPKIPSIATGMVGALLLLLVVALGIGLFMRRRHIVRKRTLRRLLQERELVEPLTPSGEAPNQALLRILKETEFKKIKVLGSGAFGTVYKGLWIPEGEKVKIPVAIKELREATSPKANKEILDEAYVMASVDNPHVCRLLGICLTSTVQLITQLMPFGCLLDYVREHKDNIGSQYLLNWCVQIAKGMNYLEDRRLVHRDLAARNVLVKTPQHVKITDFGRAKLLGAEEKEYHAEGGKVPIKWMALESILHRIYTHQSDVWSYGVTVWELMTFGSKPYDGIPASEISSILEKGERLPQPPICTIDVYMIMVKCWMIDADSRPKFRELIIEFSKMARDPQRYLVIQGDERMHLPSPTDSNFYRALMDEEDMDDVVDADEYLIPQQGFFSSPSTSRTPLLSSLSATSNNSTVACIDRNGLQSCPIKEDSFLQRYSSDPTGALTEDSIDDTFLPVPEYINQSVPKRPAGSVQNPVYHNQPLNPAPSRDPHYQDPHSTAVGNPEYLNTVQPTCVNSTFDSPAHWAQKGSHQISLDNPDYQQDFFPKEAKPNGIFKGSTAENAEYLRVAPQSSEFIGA
Assay: Growth inhibition of BaF3 cell line stably transfected with kinase EGFR L858R (MTS)
Assay type: cell-based
Details: 48 h, read-out: growth inhibitory activity IC50, L858R
Experimental: Biological Activity Assay: Growth Inhibitory Activity of Compounds on Cell Lines Stably Transfected with Kinase The activity of compounds against various mutants of kinase EGFR was evaluated by their effect of inhibiting growth of BaF3 cell lines stably transfected with kinase. […] 4) IC50 calculation: The semi-inhibitory concentration of the compounds acting on cells was calculated using GradPad Prism 5 software according to the measured cell growth inhibition rate.

Guide cases for GI50, answers given:
C=Cc1cnc(Nc2cc(CC3CC3)c(N3CCC(N4CCN(C)CC4)CC3)cc2OC)nc1Nc1ccc2nccnc2c1P(C)(C)=O; ≤ 50 nM
C=C(C)c1cnc(Nc2cc(CC)c(N3CCC(N4CCN(C)CC4)CC3)cc2OC)nc1Nc1ccc2nccnc2c1P(C)(C)=O; ≤ 50 nM
CCc1cc(Nc2ncc(/C=C/c3ccccc3)c(Nc3ccc4nccnc4c3P(C)(C)=O)n2)c(OC)cc1N1CCC(N2CCN(C)CC2)CC1; ≤ 50 nM
CCc1cc(Nc2ncc(C3=CCCC3)c(Nc3ccc4nccnc4c3N(C)S(C)(=O)=O)n2)c(OC)cc1N1CCC(N2CCN(C)CC2)CC1; 50 to 500 nM
C=Cc1cnc(Nc2ccc(N3CCC(N4CCN(C)CC4)CC3)cc2OC)nc1Nc1ccc2nccnc2c1S(=O)(=O)NC; 500 to 2500 nM

Shifting focus to the molecule that follows.
Entry "C=Cc1cnc(Nc2cc(C)c(N3CCC(N4CCN(C)CC4)CC3)cc2OC)nc1Nc1ccc2nccnc2c1S(C)(=O)=O" — recorded GI50 = 500 to 2500 nM
